- Experimental Target: PKC delta kinase (Homo sapiens, UniProt Q05655)
- Sequence (Q05655 whole entry): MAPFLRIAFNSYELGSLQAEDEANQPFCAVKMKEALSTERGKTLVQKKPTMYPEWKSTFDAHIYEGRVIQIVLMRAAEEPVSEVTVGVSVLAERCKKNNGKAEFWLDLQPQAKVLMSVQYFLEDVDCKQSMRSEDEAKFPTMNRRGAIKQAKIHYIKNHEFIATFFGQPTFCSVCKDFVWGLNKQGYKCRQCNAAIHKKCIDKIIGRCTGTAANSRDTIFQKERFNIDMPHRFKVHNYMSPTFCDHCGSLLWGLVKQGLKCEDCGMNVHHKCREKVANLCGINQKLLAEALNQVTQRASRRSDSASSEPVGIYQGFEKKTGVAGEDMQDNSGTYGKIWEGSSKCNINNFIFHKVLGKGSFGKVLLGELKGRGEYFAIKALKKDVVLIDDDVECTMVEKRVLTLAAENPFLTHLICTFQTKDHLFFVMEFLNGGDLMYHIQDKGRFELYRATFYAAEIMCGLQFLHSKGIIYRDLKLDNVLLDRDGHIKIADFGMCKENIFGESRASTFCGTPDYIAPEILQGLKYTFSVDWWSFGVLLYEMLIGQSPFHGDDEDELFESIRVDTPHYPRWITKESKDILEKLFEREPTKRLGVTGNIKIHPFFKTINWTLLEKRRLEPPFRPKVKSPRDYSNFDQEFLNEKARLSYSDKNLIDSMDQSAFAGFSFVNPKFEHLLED
- Experiment Description: PKC delta kinase inhibition, coupled-enzyme NADH absorbance assay (Ki)
- Type: biochemical
- Condition Set: 150 μM ATP, 46 nM PKC delta, 30° C.; read-out: Ki PKC delta
Hi there, I'd appreciate the recorded Ki for every entry that follows.

Examples from the recorded data:
compound="CCc1n[nH]c2nccc(-c3cccc(C(C)(CC)CN)c3)c12 (stereo not drawn) [Compound 264]" readout_type=Ki result="< 50 nM"
compound="CCC(C)(CN)c1cc(CCCO)cc(-c2ccnc3[nH]nc(Cl)c23)c1 (stereo not drawn) [Compound 208]" readout_type=Ki result="< 500 nM"
compound="N#CCC1(c2cccc(-c3ccnc4[nH]ncc34)c2)CNC1 [Compound 192]" readout_type=Ki result="< 500 nM"
compound="NCC1(c2cccc(-c3ccnc4[nH]ncc34)c2)CC1 [Compound 153]" readout_type=Ki result="< 2800 nM"
compound="CCC(C)(CO)c1cccc(-c2ccnc3[nH]nc(C(F)(F)F)c23)c1 (stereo not drawn) [Compound 318]" readout_type=Ki result="< 50 nM"

Batch of 2 compounds: report Ki for each.
1. CCC(C)(C#N)c1cc(-c2ccnc3[nH]ncc23)cc(C(F)(F)F)c1 (stereo not drawn) [Compound 93]
2. CCC1(c2cc(C)cc(-c3ccnc4[nH]ncc34)c2)CNC(=O)O1 (stereo not drawn) [Compound 228]

Result:
1: < 2800 nM; 2: < 2800 nM

Batch of 2 compounds: report Ki for each.
1. COCCC(CN)c1cccc(-c2ccnc3[nH]nc(C(F)(F)F)c23)c1 (stereo not drawn) [Compound 284]
2. CC(N)c1cccc(-c2ccnc3[nH]ncc23)c1 (stereo not drawn) [Compound 246]

Result:
< 500 nM
< 2800 nM

###

- Experimental Target: PKC theta kinase (Homo sapiens, UniProt Q04759)
- Sequence (Q04759 whole entry): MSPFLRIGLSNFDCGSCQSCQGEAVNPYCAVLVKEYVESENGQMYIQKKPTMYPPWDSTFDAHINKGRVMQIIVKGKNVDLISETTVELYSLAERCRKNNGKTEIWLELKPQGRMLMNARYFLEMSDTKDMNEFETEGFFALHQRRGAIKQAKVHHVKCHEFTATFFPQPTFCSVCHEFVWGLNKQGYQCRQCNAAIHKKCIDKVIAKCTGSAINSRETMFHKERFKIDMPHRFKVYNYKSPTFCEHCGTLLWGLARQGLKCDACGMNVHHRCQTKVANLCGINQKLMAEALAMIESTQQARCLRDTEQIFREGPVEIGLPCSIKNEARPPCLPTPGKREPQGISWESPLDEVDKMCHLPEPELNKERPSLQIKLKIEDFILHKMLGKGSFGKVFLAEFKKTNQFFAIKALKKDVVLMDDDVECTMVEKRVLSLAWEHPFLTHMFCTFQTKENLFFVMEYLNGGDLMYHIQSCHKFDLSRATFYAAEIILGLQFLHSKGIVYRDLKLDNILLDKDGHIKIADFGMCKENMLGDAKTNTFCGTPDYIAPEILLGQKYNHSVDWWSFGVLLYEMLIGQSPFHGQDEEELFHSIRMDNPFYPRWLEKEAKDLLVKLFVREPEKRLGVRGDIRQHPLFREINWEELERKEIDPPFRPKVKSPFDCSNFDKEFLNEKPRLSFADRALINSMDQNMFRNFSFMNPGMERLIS
- Experiment Description: PKC theta kinase inhibition, coupled-enzyme NADH absorbance assay (Ki)
- Type: biochemical
- Condition Set: 240 μM ATP, 18 nM PKC theta, 30° C.; read-out: Ki PKC theta
pKi: −log10 of the molar value.
Readout Type: pKi

compound=NCC1(c2cccc(-c3ccnc4[nH]nc(C(F)(F)F)c34)c2)CCOCC1 result="> 7.30"
compound=CC(C)(C#N)c1cc(-c2ccnc3[nH]ncc23)cc(N2CCNCC2)c1 result="> 6.30"
compound="CCC(C)(CN)c1cc(-c2ccnc3[nH]ncc23)cc(C(F)(F)F)c1 (centres unmarked)" result="> 7.30"

Batch of 6 compounds: report pKi for each.
1. C=C1CCc2ccc(-c3ccnc4[nH]ncc34)cc21
2. CC(CN)(Cc1cccnc1)c1cccc(-c2ccnc3[nH]ncc23)c1 (centres unmarked)
3. N#CC1(c2cccc(-c3ccnc4[nH]ncc34)c2)CC(F)(F)C1
4. NCC1(c2cc(F)cc(-c3ccnc4[nH]nc(Br)c34)c2)CCC1
5. N#CC(c1cccc(-c2ccnc3[nH]ncc23)c1)N1CCOCC1 (centres unmarked)
6. CCCc1cc(-c2ccnc3[nH]ncc23)cc(C(C)(C)C#N)c1

Result:
< 5.55
> 7.30
< 6.15
> 7.30
< 6.15
> 7.30

Batch of 5 compounds: report pKi for each.
1. N#CC(CCN)c1cccc(-c2ccnc3[nH]ncc23)c1 (centres unmarked)
2. CCC(CC)(CN)c1cccc(-c2ccnc3[nH]ncc23)c1
3. CC(C)(C)c1n[nH]c2nccc(-c3cc(Br)cc(C(C)(C)C#N)c3)c12
4. C#CCC(C)(C#N)c1cccc(-c2ccnc3[nH]ncc23)c1 (centres unmarked)
5. CCC1(c2cccc(-c3ccnc4[nH]ncc34)c2)CNC(=O)O1 (centres unmarked)

Result:
1: > 6.30; 2: > 7.30; 3: < 6.15; 4: > 6.30; 5: > 7.30

Batch of 7 compounds: report pKi for each.
1. CC(C)(C#N)c1cc(-c2ccnc3[nH]ncc23)cc(C(O)c2ccccc2)c1 (centres unmarked)
2. C=CCc1cc(-c2ccnc3[nH]ncc23)cc(C(C)(C)C#N)c1
3. CC(C)(C#N)c1cc(-c2ccnc3[nH]ncc23)cc(C2CCCCC2)c1
4. NCC1(c2cc(F)cc(-c3ccnc4[nH]nc(C(F)(F)F)c34)c2)CCOCC1
5. COCC(C)(C#N)c1cccc(-c2ccnc3[nH]ncc23)c1 (centres unmarked)
6. COCCC(C)(CN)c1cccc(-c2ccnc3[nH]ncc23)c1 (centres unmarked)
7. COc1ccc(CC(C)(CN)c2cccc(-c3ccnc4[nH]ncc34)c2)cc1 (centres unmarked)

Result:
1. > 5.55
2. > 6.30
3. > 5.55
4. > 7.30
5. > 6.30
6. > 7.30
7. > 7.30

Batch of 2 compounds: report pKi for each.
1. CC#CC[C@@](C)(CN)c1cccc(-c2ccnc3[nH]ncc23)c1
2. CCC1(c2cccc(-c3ccnc4[nH]nc(C(F)(F)F)c34)c2)CNC(=O)O1 (centres unmarked)

Result:
> 6.30
> 7.30

Where do the numbers come from? From patent US8173635B2.
